Task for the reader: assign each of the following compounds its reported GI50.
# System: A549
# experiment: NCI tumour cell line growth inhibition, 48 h
Calls of active or inactive are those of the source. Cut-off read from the data, not from the text of the source: active = GI50 up to about 1.1 µM and inactive = higher.

# example entries with known answers
compound: NS(=O)(=O)c1ccc(C(=O)O)cc1 [CARZENIDE]
GI50: > 100 µM (inactive)
--
compound: C[N+]1(C)[C@@H]2CC[C@H]1C[C@@H](OC(=O)C(CO)c1ccccc1)C2 (stereo not given in full) [ATROPINE METHYLBROMIDE]
GI50: > 100 µM (inactive)
--
compound: OCCOCCN1CCN(CCCN2c3ccccc3Sc3ccc(C(F)(F)F)cc32)CC1
GI50: 13.1 µM (inactive)
--
compound: COc1ccc([N+]2=NC(c3ccc([N+](=O)[O-])cc3)=NN(c3ccccc3)C2)cc1.[O-][Cl+3]([O-])([O-])[O-]
GI50: > 100 µM (inactive)

Now for a further compound.
Request the reported GI50 associated with "N#Cc1c(N)oc(-c2cccc([N+](=O)[O-])c2)c1C#N" > 100 µM (inactive)

* * *

# Test system: SF-539
# experiment: NCI tumour cell line growth inhibition, 48 h
Activity calls are given as the source filed them. Rule as the data show it: active = GI50 up to about 1.1 µM and inactive = higher.
Classes to choose from: active, inactive

Example entries and their recorded answers appear below.
molecule: Cc1nn(C(=O)c2ccccc2O)c2c1C(c1ccc(O)cc1)SC(=N)N2 (stereo unspecified)
label_class: inactive
//
molecule: CCCC(C)C[C@@H](C)CC(C)/C=C(\C)c1oc(=O)c(C)c(O)c1C.CC[C@@H](C)C[C@@H](C)C[C@@H](C)/C=C(\C)c1oc(=O)c(C)c(O)c1C (stereo partly specified)
label_class: inactive
//
molecule: Nc1ncnc2c1cnn2COCC(O)CO (stereo unspecified)
label_class: inactive
//
molecule: CCCCCCCCNC(=O)C1=C(C)NC(C)=C(C(=O)NCCCCCCCC)C1
label_class: inactive
//
molecule: C/C=C/C=C\C1OC(O)([C@H](CC)C(=O)NC/C=C/C=C(\C)[C@H](OC)C(C)C2OC(\C=C/C=C/C=C(\C)C(=O)c3c(O)ccn(C)c3=O)[C@H](O)[C@@H]2O)C(O)C(O)C1(C)C (stereo partly specified)
label_class: inactive
//
molecule: N=c1oc2ccc(Cl)cc2cc1C(=O)Nc1ccccc1
label_class: inactive
//
molecule: CCOP(=O)(/C=C/n1cc(C)c(=O)[nH]c1=O)OCC
label_class: inactive
//
molecule: OCCn1cnc2c(SCc3ccccc3)ncnc21
label_class: inactive

Recorded test outcome, item "CC(C)(C)C1CCN(C(=O)c2ccccc2)CC1" inactive

Recorded test outcome, item "CN(C)c1ccc(/C=N/Nc2nc3ccccc3c(=O)n2-c2ccccc2)cc1" inactive

Recorded test outcome, item "O=[N+]([O-])c1ccc(CSc2nncc3[nH]cnc23)cc1" inactive

Recorded test outcome, item CC(C)C1CC=NN1C(=O)OC(C)(C)C (stereo unspecified) inactive

Recorded test outcome, item "O=C(CCCN1CCC2(CC1)CC(=O)N(N1CCOCC1)C2=O)c1ccc(F)cc1" inactive

Recorded test outcome, item "CC1=C(/C=C/C(=O)O)C(C)(C)CCC1" inactive

Recorded test outcome, item "CCC(CC)n1cc(C(=O)NC(=O)NCCCCCOC(=O)CCCCCCCCCCC(=O)OCCCCCNC(=O)NC(=O)c2cn(C(CC)CC)c(=O)[nH]c2=O)c(=O)[nH]c1=O" inactive

Recorded test outcome, item COc1ccc2cc1Oc1ccc(cc1)CC1c3c(cc(OC)c4c3Oc3cc5c(cc3O4)CCNC5C2)CCN1C (stereo unspecified) inactive

Recorded test outcome, item "O=c1c(-c2ccccc2)nnc2n(Cc3ccccc3)c3ccccc3n12" inactive

Recorded test outcome, item "O=[N+]([O-])c1cc2ccc1OCc1cccc(n1)COc1ccc(cc1[N+](=O)[O-])/C=N\CCCCCCCC/N=C\2" inactive

* * *

# Tested on: K562
# experiment: NCI tumour cell line growth inhibition, 48 h
Calls of active or inactive are those of the source. Rule as the data show it: active = GI50 up to about 1.1 µM and inactive = higher.
Classes to choose from: 1 for active, 0 for inactive

compound: C[N+](C)(C)/N=C\c1ccc(O)c(O)c1
label_class: 0
//
compound: COc1ccc([N+]2=NC(c3ccc([N+](=O)[O-])cc3)=NN(c3ccccc3)C2)cc1.[O-][Cl+3]([O-])([O-])[O-]
label_class: 0
//
compound: CN1c2ccccc2C(=O)NC12CCNCC2
label_class: 0
//
compound: O=C(CSCC(=O)N/N=C/c1cccc(C(F)(F)F)c1)N/N=C/c1cccc(C(F)(F)F)c1
label_class: 0
//
compound: Cc1no[n+]([O-])c1/C=N/NS(=O)(=O)c1ccccc1
label_class: 0
//
compound: Cc1ccc(S(=O)(=O)N(CC(O)COc2ccccc2)c2ccc(F)cc2F)cc1 (stereo not given)
label_class: 0

Recorded test outcome, item COc1cc2c3c(cc(Cl)nc3c1OC)C(O)(CC(=O)c1ccccc1)C(=O)N2 (stereo not given) 0

Recorded test outcome, item O=P1(N(CCCl)CCCl)Oc2ccc(Cl)cc2Sc2c(ccc(Cl)c2Cl)O1 (stereo not given) 0

Recorded test outcome, item "N#CC(=S)Nc1cccc(Cl)c1" 0

Recorded test outcome, item "NC(=S)N1N=C2c3ccccc3CCC[C@H]2[C@@H]1c1ccccc1" 1

Recorded test outcome, item "COc1ccc(/N=N/C(=N\c2ccc(F)cc2)c2ccc(N(CCC#N)CCC#N)cc2)cc1" 0

* * *

# System: SNB-75
# experiment: NCI tumour cell line growth inhibition, 48 h
Active and inactive are the calls of the source. No stated cut-off is given here; in the data, active = GI50 up to about 1.1 µM and inactive = higher.
Classes to choose from: T (active), F (inactive)

molecule: Cc1cc(O)c2c3c1C(=O)Oc1c(CO)c(O)c(C(=O)O)c(c1O3)C=NN=Cc1c3c(c(CO)c(O)c1C(=O)O)OC(=O)c1c(C)cc(O)c(c1O3)C=NN=C2
label_class: F
//
molecule: COc1ccc(C2=C(N)c3ccccc3C2=O)cc1
label_class: F
//
molecule: O=C(CSCC(=O)N/N=C/c1cccc(C(F)(F)F)c1)N/N=C/c1cccc(C(F)(F)F)c1
label_class: F

Recorded test outcome, item "O=C1NC(=O)C(=O)C(c2nc3ccccc3s2)C1=O" F

Recorded test outcome, item "N#CCCC1(CCC#N)S(=O)(=O)OCCOS1(=O)=O" F

Recorded test outcome, item "CO[C@H](c1ccccc1)[C@H](C)N(C)c1ccc2ccccc2c1C1=NC(C)(C)CO1" F

Recorded test outcome, item "CCCCCCc1ccc(CCCCCCCC(=O)O)o1" F

Recorded test outcome, item "COc1cc(CNc2nc3ccccc3nc2-c2cccs2)cc(OC)c1OC" F

Recorded test outcome, item "CCOC(=O)[C@@H](Cc1ccc(CCl)cc1)NC(C)=O" F

Recorded test outcome, item "O=C(O)c1c[nH]c2c(Sc3ccccc3)nccc2c1=O" F

Recorded test outcome, item "O=C(/C=C/c1ccc(-c2ccccc2[N+](=O)[O-])o1)NCc1ccc(C(=O)NCCc2ccccc2)cc1" F

Recorded test outcome, item "Cc1c(-c2c(C)c3ccccc3n2S(=O)(=O)c2ccccc2)n(S(=O)(=O)c2ccccc2)c2ccccc12" F

Recorded test outcome, item NC(Cc1ccc(S(=O)(=O)O)cc1)C(=O)NC(Cc1ccc(S(=O)(=O)O)cc1)C(=O)NC(Cc1ccc(S(=O)(=O)O)cc1)C(=O)O (configuration not stated) F

Recorded test outcome, item "CCN(CCCl)c1cc(CN(C)C)cc(NC(=O)c2ccc(C(=O)Nc3cc(CN(C)C)cc(N(CC)CCCl)c3)cc2)c1" T

Recorded test outcome, item COc1cccc(C23CCCC(C2)NCC3Br)c1OC (configuration not stated) F

Recorded test outcome, item "CCCCCCCCNC(=O)C1=C(C)NC(C)=C(C(=O)NCCCCCCCC)C1" F

Recorded test outcome, item "CC(C)(C)[C@H]1CC[C@@](O)(c2ccccc2)CC1.CC(C)(C)[C@H]1CC[C@](O)(c2ccccc2)CC1" F

* * *

# Tested on: OVCAR-4
# experiment: NCI tumour cell line growth inhibition, 48 h
Activity calls are given as the source filed them. Cut-off read from the data, not from the text of the source: active = GI50 up to about 1.1 µM and inactive = higher.
Classes to choose from: YES = active, NO = inactive

molecule: O=C(c1ccncc1)n1nc(-c2ccccc2)c(/N=N/c2ccccc2[N+](=O)[O-])c1-c1ccccc1
measured_target: OVCAR-4
label_class: NO
//
molecule: O=S(=O)(c1cc(Cl)ccc1Cl)n1ccnc1
measured_target: OVCAR-4
label_class: NO
//
molecule: CCN(CCCl)c1cc(CN(C)C)cc(NC(=O)c2ccc(C(=O)Nc3cc(CN(C)C)cc(N(CC)CCCl)c3)cc2)c1
measured_target: OVCAR-4
label_class: YES
//
molecule: Nc1nc(N)c2cc(CNc3ccc(C(=O)NC(CC(=O)O)C(=O)O)c(Cl)c3)ccc2n1 (centres undefined)
measured_target: OVCAR-4
label_class: NO
//
molecule: C=C(C)[C@H]1C[C@@H]2O[C@@](O)(/C(C)=C\C(=O)/C=C(/C)C[C@H]3OC(=O)[C@@]24O[C@H]34)[C@@H]1O
measured_target: OVCAR-4
label_class: NO
//
molecule: CCOP(=O)(OCC)C(F)(F)c1ccc(CC(NC(=O)OC(C)(C)C)C(=O)O)cc1 (centres undefined)
measured_target: OVCAR-4
label_class: NO

Recorded test outcome, item CC12CC3CC/C(=N\O)C(C1)C3(N1CCOCC1)C/C2=N/O (centres undefined) NO

Recorded test outcome, item "Cc1c(C(=O)CC(=O)C(=O)Nc2c(C(C)C)cccc2C(C)C)[n+]([O-])c2ccccc2[n+]1[O-]" NO

Recorded test outcome, item "Nc1ccc(S(=O)(=O)c2ccc(/N=[N+](\[O-])c3ccc(S(=O)(=O)c4ccc(N)cc4)cc3)cc2)cc1" NO
